Target: T1, CADM1 extracellular domain expressed by the CHO-Flpln CADM1 cell line (human) (UniProt Q9BY67)
T1 sequence: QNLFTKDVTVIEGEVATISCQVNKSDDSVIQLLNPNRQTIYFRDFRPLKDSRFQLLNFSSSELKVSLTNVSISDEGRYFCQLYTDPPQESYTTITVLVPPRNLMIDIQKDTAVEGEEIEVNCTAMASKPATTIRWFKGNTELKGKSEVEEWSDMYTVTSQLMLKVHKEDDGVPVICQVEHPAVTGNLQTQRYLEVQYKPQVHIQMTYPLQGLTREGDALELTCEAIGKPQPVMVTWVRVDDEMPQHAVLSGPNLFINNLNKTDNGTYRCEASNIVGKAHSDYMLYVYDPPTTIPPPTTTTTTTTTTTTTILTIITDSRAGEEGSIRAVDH
Test: flow cytometry, CHO-Flpln CADM1 cells
Measure Name: percent of cells bound

Observe how each entry below is paired with its result.
{"columns": ["Binder", "Measured Value"],
 "data": [
  ["Antibody-3 (antibody, V domains shown, also called AB3; AB 3) VH: EVQLLESGGGLVQPGGSLRLSCAASGFTFSRYPMYWVRQAPGKGLEWVSSISSSGGLTHYADSVKGRFTISRDNSKNTLYLQMNSLRAEDTAVYYCARGDWYFDLWGRGTL VL: QYELTQDPAVSVALGQTVRITCQGDSLRTYYASWYQQRPGQAPVLVIYGDNDRPSGIPDRFSGSTSRNTASLTITGAQAEDEAHYYCNSRDSSGNHIFATGTKVTVL", "99.7%"],
  ["Antibody-2 (antibody, V domains shown) VH: EVQLLESGGGLVQPGGSLRLSCAASGFTFSKYEMVWVRQAPGKGLEWVSYIVPSGGATLYADSVKGRFTISRDNSKNTLYLQMNSLRAEDTAVYYCARVKAGVFDYWGQGTL VL: QYELTQPPSVSVSPGQTARITCSGDRLGETYVSWYQQKPGQSPVLVIFEDNKRPSGIPERFSGSNSGNTATLTVSGTRAMDEADYYCQAWVGSTPFVFGTGTKVTVL", "99.9%"]
]}

Value of measured percent of cells bound for the entry Antibody-1 (antibody, V domains shown) VH: EVQLLESGGGLVQPGGSLRLSCAASGFTFSFYPMQWVRQAPGKGLEWVSSIGSSGGYTKYADSVKGRFTISRDNSKNTLYLQMNSLRAEDTAVYYCTRDRWYFDLWGRGTL VL: QSELTQDPAVSVALGHTVKITCQGDTFRTYYASWYQQKPGQAPLLVVYGENKRPSGIPDRFSGSTSGNTASLTITGAQAEDEADYYCHSRDNSGHLHVFGGGTKVTVL : 99.8%
